# System: upland rice (Oryza sp., var.Tebonnet, RICE)
# measurement_notes: Pre-emerge greenhouse test, crop damage rating
# Format: in vivo
# settings: Rate 500 g al/ha, 14 days after application, rating scale 0-100
measured_metric: RICE crop damage rating

**Query** I'd like to know its RICE crop damage rating. The compound in question is Cc1nsc(Oc2cc(-n3c(=O)n4n(c3=S)CCCC4)c(F)cc2Cl)c1[N+](=O)[O-] [Compound 8-35]
**Result** 70

**Query** Another compound to look at: O=c1n(-c2cc(Oc3cccc(F)n3)c(Cl)cc2F)c(=S)n2n1CCCC2 [Compound 8-25]
**Result** 70

**Query** Lookup O=c1n(-c2cc(Oc3nc(F)c(F)cc3F)c(Cl)cc2F)c(=S)n2n1CCCC2 [Compound 8-28]
**Result** 70

* * *

# System: field corn (Zea mays L., var. Dekalb 535, CORN)
# measurement_notes: Post-emerge greenhouse test, crop damage rating
# Type: in vivo
# settings: 500 g al/ha, 14 days after application
measured_metric: CORN crop damage rating (0-100)

**Query** Which CORN crop damage rating (0-100) value belongs to "O=c1n(CCCF)nnn1-c1cc(Oc2ncccc2C(F)(F)F)c(Cl)cc1F" ?
**Result** 15

**Query** Repeat with "CCN1CC(=O)N(c2cc(Oc3ncccn3)c(Cl)cc2F)C1=O"
**Result** 15

**Query** Now consider "N#Cc1cccnc1Oc1cc(-n2nnn(CCCF)c2=O)c(Cl)cc1Cl" .
**Result** 0

**Query** What about this molecule? "O=c1n(CCCF)nnn1-c1cc(Oc2ccc(C(F)(F)F)cn2)c(Cl)cc1F"
**Result** 5

**Query** Also need "O=C1C2=CCCCN2C(=O)N1c1cc(Oc2ncccc2C(F)(F)F)c(Cl)cc1F" , thanks.
**Result** 5

**Query** Request: "Cn1nc(-c2cc(Oc3ccc(C#N)cn3)c(Cl)cc2F)c(Cl)c1C(F)(F)F"
**Result** 0

**Query** Ok, now "O=c1n(-c2cc(Oc3ccc([N+](=O)[O-])cc3C(F)(F)F)c(Cl)cc2F)c(=S)n2n1CCCC2"
**Result** 5

**Query** Query CCOC(=O)C(C)Oc1ccc(Oc2cc(-n3c(=O)n4n(c3=S)CCCC4)c(F)cc2Cl)cc1 (centres unmarked) next
**Result** 95

* * *

Provide the reported pest or weed control at 500 g/ha of each item.
# Test system: Johnsongrass (Sorghum halepense, SORHA)
# measurement_notes: Pre-emerge greenhouse herbicide test, phytotoxicity rating
# Type: in vivo
# settings: Sorghum halepense, pre-emergence, 336 h, Rate 500 g al/ha, 14 days after application, rating scale 0-100
The response must be a number in % with no trailing unit.

**Query** Please state recorded pest or weed control at 500 g/ha (tested on Johnsongrass (Sorghum halepense, SORHA)) of "Nn1c(C(F)(F)F)cc(=O)n(-c2cc(Oc3ccc([N+](=O)[O-])cc3C(F)(F)F)c(Cl)cc2F)c1=O"
**Result** 95

**Query** # repeat for "Nn1c(C(F)(F)F)cc(=O)n(-c2cc(Oc3nc(F)c(F)cc3F)c(Cl)cc2F)c1=O"
**Result** 90

**Query** Moving on to "N#Cc1ccc(Oc2cc(-n3c(=O)cc(C(F)(F)F)n(N)c3=O)c(F)cc2Cl)nc1"
**Result** 100

**Query** Check "Cc1nsc(Oc2cc(-n3c(=O)cc(C(F)(F)F)n(N)c3=O)c(F)cc2Cl)c1[N+](=O)[O-]" too.
**Result** 100

**Query** Record: "Nn1c(C(F)(F)F)cc(=O)n(-c2cc(Oc3ccccc3C(F)(F)F)c(Cl)cc2F)c1=O"
**Result** 90

**Query** // repeat for "Nn1c(C(F)(F)F)cc(=S)n(-c2cc(Oc3ccc(Cl)cn3)c(Cl)cc2F)c1=O" and report
**Result** 80

**Query** Record: "Nn1c(C(F)(F)F)cc(=O)n(-c2cc(Oc3ccccc3[N+](=O)[O-])c(Cl)cc2F)c1=O"
**Result** 100

* * *

# System: soybean (Glycine max L., var. Pella 86, SOY)
# measurement_notes: Post-emerge greenhouse test, crop damage rating
# Format: in vivo
# settings: 500 g al/ha, 14 days after application
measured_metric: SOY crop damage rating (0-100)
Hey, just send me the number, nothing else.

**Query** Notebook entry, soybean (Glycine max L., var. Pella 86, SOY) assay: SOY crop damage rating (0-100) of N#Cc1cccnc1Oc1cc(-n2nnn(CCCF)c2=O)c(F)cc1Cl [Compound 6-4] = ?
**Result** 60

**Query** One more molecule: Cn1c(C(F)(F)F)nc(-c2cc(Oc3ncccc3C(F)(F)F)c(Cl)cc2F)c1Cl [Compound 2-2]
**Result** 35

**Query** Next molecule: O=c1n(CCCF)nnn1-c1cc(Oc2ncccc2[N+](=O)[O-])c(Cl)cc1F [Compound 6-2]
**Result** 30

**Query** Ok, now O=c1n(CCCF)nnn1-c1cc(Oc2ncccc2C(F)(F)F)c(Cl)cc1Cl [Compound 6-7]
**Result** 30

**Query** Cool, now Nc1ccc(Oc2cc(-n3c(=O)n4n(c3=S)CCCC4)c(F)cc2Cl)cc1 [Compound 8-9]
**Result** 70

**Query** Now give it for O=c1n(-c2cc(Oc3ccc([N+](=O)[O-])cc3C(F)(F)F)c(Cl)cc2F)c(=S)n2n1CCCC2 [Compound 8-14] too.
**Result** 30

**Query** Another molecule: O=c1n(CCCF)nnn1-c1cc(Oc2ncccn2)c(Cl)cc1Cl [Compound 6-14]
**Result** 90

**Query** Now the same for O=C1C2=CCCCN2C(=O)N1c1cc(Oc2ncccc2C(F)(F)F)c(Cl)cc1F [Compound 4-2]
**Result** 30

**Query** What about Cn1nc(-c2cc(Oc3cccc(F)n3)c(Cl)cc2F)c(Cl)c1C(F)(F)F [Compound 1-5] ?
**Result** 90

**Query** Try CCOC(=O)C(C)Oc1ccc(Oc2cc(-n3c(=O)n4n(c3=S)CCCC4)c(F)cc2Cl)cc1 (stereo not shown) [Compound 8-11] next.
**Result** 100

**Query** Then what about the molecule Cn1c(C(F)(F)F)nc(-c2cc(Oc3ncccn3)c(Cl)cc2F)c1Cl [Compound 2-3] ?
**Result** 90

**Query** Try this molecule next: Cn1nc(-c2cc(Oc3ncccc3C#N)c(Cl)cc2F)c(Cl)c1C(F)(F)F [Compound 1-3]
**Result** 90

**Query** Try this molecule too: O=c1cc2n(c(=O)n1-c1cc(Oc3ncccn3)c(Cl)cc1F)CCC2 [Compound 5-12]
**Result** 100

* * *

I'd appreciate it if you could supply phytotoxicity rating DIGSA values for the items below.
# Tested on: large crabgrass (Digitaria sanguinalis, DIGSA)
# measurement_notes: Post-emerge greenhouse herbicide test, phytotoxicity rating
# Assay type: in vivo
# settings: rate 63 g ai/ha, 14 days after application, scale 0-100
The answer should be a number; do not append a unit.

**Query** What does the record list as phytotoxicity rating DIGSA for "COc1nc(OC)nc(Oc2cc(-n3c(=O)n4n(c3=S)CCCC4)c(F)cc2Cl)n1" ?
**Result** 0

**Query** What would you report for "N#Cc1ccc(Oc2cc(-n3c(=O)n4n(c3=S)CCCC4)c(F)cc2Cl)nc1" ?
**Result** 0

**Query** Next entry: "N#Cc1cccnc1Oc1cc(-n2c(=O)n3n(c2=S)CCCC3)c(F)cc1Cl"
**Result** 30

**Query** What about this compound? "CS(=O)(=O)c1cccnc1Oc1cc(-n2c(=O)n3n(c2=S)CCCC3)c(F)cc1Cl"
**Result** 0

**Query** Now this one: CCOC(=O)C(C)Oc1ccc(Oc2cc(-n3c(=O)n4n(c3=S)CCCC4)c(F)cc2Cl)c([N+](=O)[O-])c1 (stereo not shown)
**Result** 0

**Query** Same for CCOC(=O)C(C)Oc1ccc(Oc2cc(-n3c(=O)n4n(c3=O)CCCC4)c(F)cc2Cl)c([N+](=O)[O-])c1 (stereo not shown)
**Result** 0

**Query** Also need "O=c1n(-c2cc(Oc3nc(F)c(F)cc3F)c(Cl)cc2F)c(=S)n2n1CCCC2" , thanks.
**Result** 20

**Query** Item: CCOC(=O)C(C)Oc1ccc(Oc2cc(-n3c(=O)n4n(c3=S)CCCC4)c(F)cc2Cl)c(N)c1 (stereo not shown)
**Result** 0

**Query** // same read-out, input: "O=c1n(-c2cc(Oc3nccc(Cl)n3)c(Cl)cc2F)c(=S)n2n1CCCC2"
**Result** 0

**Query** Repeat for the following compound: "O=c1n(-c2cc(Oc3ncc([N+](=O)[O-])s3)c(Cl)cc2F)c(=S)n2n1CCCC2"
**Result** 30

**Query** Repeat for the following compound: "CSc1cccnc1Oc1cc(-n2c(=O)n3n(c2=S)CCCC3)c(F)cc1Cl"
**Result** 0

**Query** Consider next the compound "O=c1n(-c2cc(Oc3nccc(C(F)(F)F)n3)c(Cl)cc2F)c(=S)n2n1CCCC2" in the same way.
**Result** 0

**Query** Queued: "Nn1c(C(F)(F)F)cc(=O)n(-c2cc(Oc3cccc(F)n3)c(Cl)cc2F)c1=O"
**Result** 10

**Query** Repeat for the following compound: CCOC(=O)C(C)Oc1cc([N+](=O)[O-])c(Oc2cc(-n3c(=O)n4n(c3=S)CCCC4)c(F)cc2Cl)cc1Cl (stereo not shown)
**Result** 0

**Query** Could you do the same for "O=c1n(-c2cc(Oc3ncccc3[N+](=O)[O-])c(Cl)cc2F)c(=S)n2n1CCCC2" , please?
**Result** 30

**Query** Quick one: "Nc1ccc(Oc2cc(-n3c(=O)n4n(c3=S)CCCC4)c(F)cc2Cl)nc1"
**Result** 50
